system: Kv11.1 (hERG) (Homo sapiens (Human), UniProt Q12809)
Sequence (Q12809 whole entry): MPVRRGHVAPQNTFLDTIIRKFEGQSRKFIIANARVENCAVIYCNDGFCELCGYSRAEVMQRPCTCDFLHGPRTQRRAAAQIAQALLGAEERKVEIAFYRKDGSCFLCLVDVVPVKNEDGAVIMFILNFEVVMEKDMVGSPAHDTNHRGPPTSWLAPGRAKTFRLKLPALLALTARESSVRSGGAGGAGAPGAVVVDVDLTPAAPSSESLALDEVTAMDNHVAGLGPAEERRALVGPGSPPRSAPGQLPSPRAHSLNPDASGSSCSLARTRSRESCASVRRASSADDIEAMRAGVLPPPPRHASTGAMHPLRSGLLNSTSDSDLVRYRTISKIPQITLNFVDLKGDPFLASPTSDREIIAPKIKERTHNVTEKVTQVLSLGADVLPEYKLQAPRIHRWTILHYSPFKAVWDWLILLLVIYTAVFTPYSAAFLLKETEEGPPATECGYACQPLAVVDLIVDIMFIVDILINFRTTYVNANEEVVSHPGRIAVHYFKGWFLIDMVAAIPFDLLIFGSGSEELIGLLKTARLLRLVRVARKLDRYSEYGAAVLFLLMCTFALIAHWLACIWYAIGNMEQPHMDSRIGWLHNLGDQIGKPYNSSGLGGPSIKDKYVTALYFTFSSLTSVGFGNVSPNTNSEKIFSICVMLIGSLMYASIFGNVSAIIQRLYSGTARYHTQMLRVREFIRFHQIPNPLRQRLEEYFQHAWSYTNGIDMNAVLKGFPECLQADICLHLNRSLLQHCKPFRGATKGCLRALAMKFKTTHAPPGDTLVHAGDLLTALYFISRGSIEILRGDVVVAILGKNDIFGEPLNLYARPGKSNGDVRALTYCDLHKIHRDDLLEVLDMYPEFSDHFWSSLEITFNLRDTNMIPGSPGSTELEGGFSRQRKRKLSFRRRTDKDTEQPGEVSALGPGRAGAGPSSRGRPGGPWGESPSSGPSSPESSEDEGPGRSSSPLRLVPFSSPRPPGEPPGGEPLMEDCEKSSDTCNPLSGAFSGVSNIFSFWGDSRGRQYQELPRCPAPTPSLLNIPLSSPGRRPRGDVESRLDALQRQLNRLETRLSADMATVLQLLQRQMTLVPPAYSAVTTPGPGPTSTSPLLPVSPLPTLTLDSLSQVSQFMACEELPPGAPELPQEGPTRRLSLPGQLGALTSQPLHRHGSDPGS
experiment: Kv11.1 (hERG) ion channel activity (patch clamp assay), HEK293 cells transfected with hERG gene
experimental.conditions: read-out: Ki [Kv1.11 hERG]; hERG patch clamp assay (cells without asterisk)
observation.type: Ki

1) Cc1cnc(C(O)c2ccc(F)c(-c3ncnc4cc(N5CCOCC5)ccc34)c2)c(C)n1 (centres unmarked) :: > 25 µM
2) COc1nccnc1C(O)c1cc(-c2ncnc3cc(N4CCOCC4)cnc23)c(F)cc1Cl (centres unmarked) [Example 232] :: > 25 µM
3) Cc1nccnc1C(O)c1cc(-c2ncnc3cc(N4CCOCC4)ccc23)c(F)cc1Cl (centres unmarked) :: > 25 µM
4) OC(c1ccc(F)c(-c2ncnc3cc(N4CCOCC4)ccc23)c1)c1nccc2ccoc12 (centres unmarked) :: < 10 µM
5) OC(c1cc(-c2ncnc3cc(N4CCOCC4)ccc23)ccc1Cl)c1ncnc2ccoc12 (centres unmarked) [Example 432] :: 10 to 15 µM
6) Cc1cncnc1C(C(N)=O)c1cc(-c2ncnc3cc(N4CCOCC4)ccc23)ccc1Cl (centres unmarked) [Example 407] :: 15 to 25 µM
7) Cc1cncc(C(O)c2ccc(F)c(-c3ncnc4cc(N5CCOCC5)ccc34)c2)n1 (centres unmarked) :: > 25 µM
8) COc1cncnc1C(O)c1cc(-c2ncnc3cc(N4CCOCC4)ccc23)ccc1Cl (centres unmarked) :: > 25 µM

###

system: Kv11.1 (hERG) (Homo sapiens (Human))
experiment: Kv11.1 (hERG) ion channel activity (patch clamp assay), HEK293 cells transfected with hERG gene
experimental.conditions: read-out: Ki [Kv1.11 hERG]; hERG patch clamp assay (cells without asterisk)
pKi: −log10 of the molar value.
observation.type: pKi

1) COc1ccc(C(O)c2ccc(F)c(-c3ncnc4cc(N5CCOCC5)cc(F)c34)c2)nn1 (centres unmarked) [Example 260] :: < 4.60
2) OC(c1cc(-c2ncnc3cc(N4CCOCC4)ccc23)c(F)cc1F)c1nncc2ccoc12 (centres unmarked) [Example 336] :: < 4.60
3) OC(c1cc(-c2ncnc3cc(N4CCOCC4)ccc23)c(F)cc1F)c1nccnc1OC(F)F (centres unmarked) [Example 451] :: 4.60 to 4.82
4) Cc1cc(C(O)c2ccc(F)c(-c3ncnc4cc(N5CCOCC5)ccc34)c2)n(C)c(=O)c1 (centres unmarked) [Example 340] :: < 4.60
5) COc1nccnc1C(O)c1cc(-c2ncnc3cc(N4CCOCC4)ccc23)ccc1Cl (centres unmarked) [Example 422] :: 4.82 to 5.00
6) OC(c1ccc(F)c(-c2ncnc3cc(N4CCOCC4)ccc23)c1)c1ncccc1Cl (centres unmarked) [Example 466] :: 4.60 to 4.82
7) COc1nccnc1C(C(N)=O)c1cc(-c2ncnc3cc(N4CCOCC4)ccc23)ccc1Cl (centres unmarked) [Example 304] :: < 4.60
8) OC(c1cc(-c2ncnc3cc(N4CCOCC4)ccc23)c(F)cc1F)c1nncc2ccsc12 (centres unmarked) [Example 342] :: < 4.60
9) O=c1[nH]nc(C(O)c2ccc(F)c(-c3ncnc4cc(N5CCOCC5)ccc34)c2)c2ccsc12 (centres unmarked) [Example 338] :: < 4.60
10) Cn1c(C(O)c2cc(-c3ncnc4cc(N5CCOCC5)ccc34)c(F)cc2F)cccc1=O (centres unmarked) [Example 380] :: < 4.60
11) COc1nccnc1C(O)c1cc(-c2ncnc3cc(N4CCOCC4)ccc23)c(F)cc1F (centres unmarked) [Example 454] :: < 4.60
12) COc1ccc(C(C(N)=O)c2ccc(F)c(-c3ncnc4cc(N5CCOCC5)ccc34)c2)nn1 (centres unmarked) [Example 308] :: < 4.60
13) NC(=O)C(c1cc(-c2ncnc3cc(N4CCOCC4)ccc23)c(F)cc1Cl)c1cccc2nncn12 (centres unmarked) [Example 298] :: < 4.60
14) OC(c1ccc(F)c(-c2ncnc3cc(N4CCOCC4)ccc23)c1)c1ncnn2cccc12 (centres unmarked) [Example 345] :: > 5.00
15) Cn1ncc2c(C(O)c3ccc(F)c(-c4ncnc5cc(N6CCOCC6)ccc45)c3)ncnc21 (centres unmarked) [Example 404] :: < 4.60
16) NC(=O)C(c1cccnc1)c1cc(-c2ncnc3cc(N4CCOCC4)ccc23)c(F)cc1F (centres unmarked) [Example 294] :: < 4.60
17) Cn1c(C(O)c2cc(-c3ncnc4cc(N5CCOCC5)ccc34)c(F)cc2F)cccc1=O (centres unmarked) [Example 381] :: < 4.60
18) Cn1cnc2c(C(O)c3ccc(F)c(-c4ncnc5cc(N6CCOCC6)ccc45)c3)ncnc21 (centres unmarked) [Example 420] :: < 4.60
19) OC(c1cc(-c2ncnc3cc(N4CCOCC4)ccc23)c(F)cc1F)c1cccc2nncn12 (centres unmarked) [Example 350] :: < 4.60
20) OC(c1cc(-c2ncnc3cc(N4CCOCC4)ccc23)c(F)cc1Cl)c1ncnc2sccc12 (centres unmarked) [Example 429] :: > 5.00
21) OC(c1cc(-c2ncnc3cc(N4CCOCC4)ccc23)ccc1Cl)c1ncnc2sccc12 (centres unmarked) [Example 430] :: < 4.60
22) OC(c1cc(-c2ncnc3cc(N4CCOCC4)ccc23)c(F)cc1Cl)c1nccn2ccnc12 (single isomer, unassigned) [Example 396] :: < 4.60
23) Cc1nccnc1C(O)c1cc(-c2ncnc3cc(N4CCOCC4)cnc23)c(F)cc1Cl (centres unmarked) [Example 240] :: < 4.60
24) COc1ccc(C(O)c2cc(-c3ncnc4cc(N5CCOCC5)cnc34)c(F)cc2Cl)nn1 (centres unmarked) [Example 227] :: < 4.60
25) Cn1c(C(O)c2ccc(F)c(-c3ncnc4cc(N5CCOCC5)ccc34)c2)nccc1=O (centres unmarked) [Example 360] :: < 4.60
26) CNC(=O)C(c1cc(-c2ncnc3cc(N4CCOCC4)ccc23)c(F)cc1Cl)c1nccnc1OC (centres unmarked) [Example 229] :: < 4.60
27) OC(c1ccc(F)c(-c2ncnc3cc(N4CCOCC4)ccc23)c1)c1nccn2cnnc12 (centres unmarked) [Example 351] :: < 4.60
28) Cc1nccnc1Cc1ccc(F)c(-c2ncnc3cc(N4CCOCC4)ccc23)c1 [Example 349] :: < 4.60
29) COc1nccnc1C(O)c1cc(-c2ncnc3cc(N4CCOCC4)ccc23)c(F)cc1F (centres unmarked) [Example 467] :: < 4.60
30) O=C1CCCN1c1nccnc1C(O)c1ccc(F)c(-c2ncnc3cc(N4CCOCC4)ccc23)c1 (centres unmarked) [Example 425] :: < 4.60
31) CCn1c(C(O)c2ccc(F)c(-c3ncnc4cc(N5CCOCC5)ccc34)c2)cccc1=O (centres unmarked) [Example 398] :: < 4.60
32) Cc1cncnc1C(C(N)=O)c1cc(-c2ncnc3cc(N4CCOCC4)ccc23)ccc1Cl (centres unmarked) [Example 378] :: < 4.60
